Entry source: patent US20190127359A1

- Test system: VHL (Homo sapiens)
- Assay comment: Fluorescence polarization competition assay (HIF-1α peptide FP displacement)
- Assay setup: IC50 (μM) 10% DMSO, 10% DMSO
Please provide measured IC50 for the entries that follow.

Example cases with answers are listed next.
> print(dat)
                                   compound         test.system  readout.kind  obs.value
1  O=C(NCc1ccc(Cl)cc1)[C@@H]1C[C@@H](O)CN1C(=O)Cn1ccnc1 [VL156]  VHL (Homo sapiens)          IC50  > 1000 µM
2  O=C(NCc1ccc(Cl)cc1)[C@@H]1C[C@@H](O)CN1C(=O)c1ccccc1-c1cnco1 [VL121]  VHL (Homo sapiens)          IC50  > 1000 µM

Query compound follows.
Record lookup: for VHL (Homo sapiens), what IC50 belongs to O=C(NCc1ccc(Cl)cc1)[C@@H]1C[C@@H](O)CN1C(=O)Cc1ccco1 [VL052] ? > 1000 µM

====

- Test system: VHL (Homo sapiens, UniProt P40337)
- Assay comment: Fluorescence polarization competition assay (HIF-1α peptide FP displacement)
- Assay setup: IC50 (μM) 10% DMSO, 10% DMSO
Readout kind: IC50

Example cases with answers are listed next.
> print(dat)
                                   compound  readout.kind  obs.value
1  O=C(NCc1ccc(Cl)cc1)[C@@H]1C[C@@H](O)CN1C(=O)Cc1cccs1 [VL053]          IC50  > 1000 µM
2  O=C(NCc1ccc(Cl)cc1)[C@@H]1C[C@@H](O)CN1C(=O)Cc1c[nH]cn1 [VL120]          IC50  > 1000 µM
3  Cc1nc(S)sc1CC(=O)N1C[C@H](O)C[C@H]1C(=O)NCc1ccc(Cl)cc1 [VL106]          IC50  > 1000 µM
4  CNC(=O)c1cc(Oc2ccc(NC(=O)[C@@H]3C[C@@H](O)CN3C(=O)Cc3cc(C)no3)cc2)ccn1 [VL027]          IC50  > 1000 µM
5  O=C(NCc1ccc(Cl)cc1)[C@@H]1C[C@@H](O)CN1C(=O)c1cccnc1 [VL097]          IC50    49.4 µM
6  Cc1cc(CC(=O)N2C[C@H](O)C[C@H]2C(=O)NCCc2ccc(O)cc2)on1 [VL002]          IC50     241 µM

Query compound follows.
Quick one: IC50 of Cc1cc(CC(=O)N2C[C@H](O)C[C@H]2C(=O)NCc2cccc(C(F)(F)F)c2)on1 [VL022] ? ~870 µM

====

- Test system: UniProt P40337
- Assay comment: Fluorescence polarization competition assay (HIF-1α peptide FP displacement)
- Assay setup: IC50 (μM) 10% DMSO, 10% DMSO
Readout kind: IC50

> print(dat)
                                smiles.data  obs.value
1  Cc1cc(CCN2C[C@H](O)C[C@H]2C(=O)NCc2ccc(-c3ccccc3)cc2)on1  > 1000 µM
2  Cc1cc(CC(=O)N2C[C@H](O)C[C@H]2C(=O)NCc2cccs2)on1    ~730 µM
3  N#Cc1ccc(CC(=O)N2C[C@H](O)C[C@H]2C(=O)NCc2ccc(Cl)cc2)s1  > 1000 µM

Query compound follows.
Quick one: IC50 of Cc1cc(CC(=O)N2C[C@H](O)C[C@H]2C(=O)N[C@H](C)c2ccccc2)on1 ? > 1000 µM
